# Test system: Mycobacterium tuberculosis
# RUN DESCRIPTION: Antimycobacterial activity against Mycobacterium tuberculosis H37Rv infected in MDBK by BACTEC analysis
# Format: functional
Could you please report measured MIC for the items listed next?
Report the figure in µM without appending any unit label.

// returns reported MIC for input CC(C)=CCC/C(C)=C/CC/C(C)=C\CN1CCN(CCC23OC4(CCN5CCN(C/C=C(\C)CC/C=C(\C)CCC=C(C)C)CC5)C5C6CC(C7C6C4C72)C53)CC1 (stereo not given)
0.32

Next up: CC(C)=CCC/C(C)=C/CNCCNC1C2CC3CC(C2)CC1C3 (stereo not given) [SQ109]
0.63

Next up: CC(C)=CCC/C(C)=C\CN1CCN(CCC23OC4(CCN5CCN(C/C=C(\C)CCC=C(C)C)CC5)C5C6CC(C7C6C4C72)C53)CC1 (stereo not given)
0.76
